Values were extracted from patent US20250243190A1.

Answer each item with its documented CC50.
methodNotes: Cell viability assay accompanying the SARS-CoV-2 assay
Assay type: cell-based
conditionDetails: cell viability assay of the SARS-CoV-2 test
Entry rule: numbers only, all in µM.

query: Respond only with CC50 recorded for `[2H]C([2H])(OC1CC1)c1c(-c2c(F)cccc2Cl)noc1-c1cnn(C([2H])([2H])CC(C)(C)O)c1C(F)(F)F`
result: 18

query: Given the compound `[2H]C([2H])(CC(C)(C)O)n1ncc(-c2onc(-c3c(F)cccc3Cl)c2C(=O)OC)c1C(F)(F)F` , write its reported CC50.
result: 20

query: Report measured CC50; entry is `[2H]C([2H])(OC1CC1)c1c(-c2c(F)cccc2Cl)noc1-c1cnn(-c2cccc(Cl)c2)c1C(F)(F)F`
result: 17

query: Given `[2H]C([2H])([C@H](C)O)n1ncc(-c2onc(-c3c(F)cccc3Cl)c2-c2ncccn2)c1C(F)(F)F` , respond with its CC50.
result: 22

query: Report CC50, nothing else, for this compound: `[2H]C([2H])(CC(C)(C)O)n1ncc(-c2onc(-c3c(F)cc(OCCN4CCOCC4)cc3Cl)c2-c2ncccn2)c1C(F)(F)F`
result: 27

query: Dear colleague, please send me the reported CC50 for `[2H]C([2H])([2H])OC(=O)c1c(-c2c(F)cccc2Cl)noc1-c1cnn(-c2cccc(Cl)c2)c1C(F)(F)F` when you can.
result: 50

query: Input `[2H]C([2H])(CC(C)(C)O)n1ncc(-c2onc(-c3c(F)cccc3Cl)c2-c2ncccn2)c1C(F)(F)F` , output reported CC50.
result: 22
